System: T1, Recombinant Cx43CT (carboxyl terminal domain of rat connexin43, residues 255-382, preceded by GPLG) (rat, UniProt P08050 255-382)
T1 construct: range 255-382; Made in E. coli as a GST fusion (pGEX-6P-2) and cleaved from GST; the protein used was derived from rat cDNA; 15N-labeled for NMR; also called recombinant CT; 15N-Cx43CT
T1 sequence (P08050 other isoform, or with tags, fused parts or gaps limits assumed): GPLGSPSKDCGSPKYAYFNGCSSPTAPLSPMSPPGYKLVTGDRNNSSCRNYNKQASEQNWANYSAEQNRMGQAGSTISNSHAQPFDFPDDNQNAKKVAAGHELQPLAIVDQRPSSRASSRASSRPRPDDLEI
Method: SPR, Cx43CT immobilized, 1:1 Langmuir kinetic fit, pH 6.5 and 7.4
Value type: pKd
As a rule, pKd stands for the negative log10 of the concentration, concentration in M.

Exam item: pKd lookup needed for SDDLRSPQLHNGGGSAVPFYSHSHMVRRKPRNPR (Synthetic doublet peptide from the biased phage display screen) [RXP-E] , thanks.
Marked response: 5.41
